Assay: p53 small molecule agonists, cell-based qHTS assay with human liver microsomes: qHTS cell viability counter screen (AID 1963579); further: on the % scale 0 is the no-effect control and ±100 the full control effect; nearly all actives have a fitted effect of over 45% in size
Conditions: p53RE-bla HCT-116 viability, ATP luminescence, 16 h, HLM; series mostly up to 66 µM
Results filed as inconclusive are left out. Active and inactive are the calls of the source. The call rests on the fitted dose curve.
measuredProperty: activity change, negative = cytotoxicity

# example entries with known answers
molecule | observedValue
N[C@H]1CN(c2c(F)cc3c(=O)c(C(=O)O)cn(C4C[C@H]4F)c3c2Cl)CC12CC2 (stereo not given in full) | inactive
CC(=O)N(CC(O)CN(C(C)=O)c1c(I)c(C(=O)NCC(O)CO)c(I)c(C(=O)NCC(O)CO)c1I)c1c(I)c(C(=O)NCC(O)CO)c(I)c(C(=O)NCC(O)CO)c1I (stereo not given) | inactive
CN(C)c1ccc(CCO)cc1 | inactive
CCCCCCC1CCCC(=O)O1 (stereo not given) | inactive
O=C1c2ccccc2C(=O)C1c1ccccc1 | inactive
CN1CCN(c2c(F)cc3c(=O)c(C(=O)O)cn4c3c2OCN4C)CC1 | -4.82% [at 13.5 µM] (inactive)

activity change, negative = cytotoxicity lookup needed for C(=C/c1ccccc1)/c1ccccc1 , thanks.
inactive

Report activity change, negative = cytotoxicity for CCOC(=O)[C@H](CCc1ccccc1)N[C@@H](C)C(=O)N(CC(=O)O)C1Cc2ccccc2C1 please.
inactive

Look at this molecule and give its reported activity change, negative = cytotoxicity. C/C(=N\O)c1ccc(OCC(=O)N2CCCCC2)cc1
inactive

What does the record list as activity change, negative = cytotoxicity for C/C=C(\C)C(=O)OCCc1ccccc1 ?
inactive

activity change, negative = cytotoxicity for CCCCCCCC/C=C/C(=O)O ?
inactive

Item under review: CCO . Reported activity change, negative = cytotoxicity?
inactive

Quick one: activity change, negative = cytotoxicity of Cc1cc2c(cc1S(N)(=O)=O)S(=O)(=O)CCC2 ?
inactive

Returns the measured activity change, negative = cytotoxicity for the input molecule. Input: Cc1ccc(N)nc1
inactive
